Cited source for all entries: ChEMBL document CHEMBL4431386

assayTarget: Amine oxidase [flavin-containing] B (Mus musculus, UniProt Q8BW75)
Sequence (Q8BW75 whole entry): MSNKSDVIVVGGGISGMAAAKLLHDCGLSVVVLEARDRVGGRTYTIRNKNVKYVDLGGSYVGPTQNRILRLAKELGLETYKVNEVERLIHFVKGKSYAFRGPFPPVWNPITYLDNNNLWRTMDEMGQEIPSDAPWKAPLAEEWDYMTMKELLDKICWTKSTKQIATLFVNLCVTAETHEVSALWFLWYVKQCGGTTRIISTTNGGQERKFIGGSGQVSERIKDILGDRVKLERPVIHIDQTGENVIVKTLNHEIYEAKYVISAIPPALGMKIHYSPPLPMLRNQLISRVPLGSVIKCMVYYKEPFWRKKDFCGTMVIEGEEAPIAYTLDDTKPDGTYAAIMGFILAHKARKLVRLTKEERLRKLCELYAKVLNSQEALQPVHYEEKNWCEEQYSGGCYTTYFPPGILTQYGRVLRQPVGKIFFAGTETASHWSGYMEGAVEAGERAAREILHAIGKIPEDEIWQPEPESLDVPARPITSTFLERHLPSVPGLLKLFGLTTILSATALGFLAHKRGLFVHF
# maps each entry to its pIC50
Scale note: pIC50 = -log10(concentration in M).

Item: C=C(C)[C@H](O)CC/C(C)=C/COc1ccc2ccc(=O)oc2c1 | pIC50: 6.30

Next:
Item: COc1ccc(-c2coc3cc(O)c(CC=C(C)C)c(O)c3c2=O)cc1 | pIC50: 6.10

---

assayTarget: Amine oxidase [flavin-containing] B (Homo sapiens, UniProt P27338)
Sequence (P27338 whole entry): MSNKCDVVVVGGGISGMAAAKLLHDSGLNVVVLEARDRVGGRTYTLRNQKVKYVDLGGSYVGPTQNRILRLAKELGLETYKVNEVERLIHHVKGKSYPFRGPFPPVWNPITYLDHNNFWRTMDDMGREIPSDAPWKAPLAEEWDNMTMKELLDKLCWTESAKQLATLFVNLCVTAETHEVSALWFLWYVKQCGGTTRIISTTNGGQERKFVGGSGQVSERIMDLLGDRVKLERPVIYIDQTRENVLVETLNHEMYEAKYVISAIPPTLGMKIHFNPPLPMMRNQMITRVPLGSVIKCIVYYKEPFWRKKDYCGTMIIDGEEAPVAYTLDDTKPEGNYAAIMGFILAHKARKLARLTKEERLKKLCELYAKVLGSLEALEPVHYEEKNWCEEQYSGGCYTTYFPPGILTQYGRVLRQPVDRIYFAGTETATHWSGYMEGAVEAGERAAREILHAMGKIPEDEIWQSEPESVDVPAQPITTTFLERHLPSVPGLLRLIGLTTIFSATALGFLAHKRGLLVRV
test: Competitive inhibition of recombinant human MAO-B expressed in baculovirus infected BTI insect cells using benzylamine as substrate by Lineweaver-Burk plot analysis
quantityKind: Ki (nM)
Report as a plain number; the unit nM is understood.

Item: Oc1ccc2c(c1)OC[C@H]1c3cc4c(cc3O[C@@H]21)OCO4 | Ki: 54

---

assayTarget: UniProt Q8BW75
quantityKind: pKi
Scale note: pKi = -log10(concentration in M).

Item: COC(=O)/C=C/C=C/c1ccc2c(c1)OCO2 [METHYL PIPERATE] | pKi: 5.89

---

assayTarget: Amine oxidase [flavin-containing] A (Homo sapiens, UniProt P21397)
Sequence (P21397 whole entry): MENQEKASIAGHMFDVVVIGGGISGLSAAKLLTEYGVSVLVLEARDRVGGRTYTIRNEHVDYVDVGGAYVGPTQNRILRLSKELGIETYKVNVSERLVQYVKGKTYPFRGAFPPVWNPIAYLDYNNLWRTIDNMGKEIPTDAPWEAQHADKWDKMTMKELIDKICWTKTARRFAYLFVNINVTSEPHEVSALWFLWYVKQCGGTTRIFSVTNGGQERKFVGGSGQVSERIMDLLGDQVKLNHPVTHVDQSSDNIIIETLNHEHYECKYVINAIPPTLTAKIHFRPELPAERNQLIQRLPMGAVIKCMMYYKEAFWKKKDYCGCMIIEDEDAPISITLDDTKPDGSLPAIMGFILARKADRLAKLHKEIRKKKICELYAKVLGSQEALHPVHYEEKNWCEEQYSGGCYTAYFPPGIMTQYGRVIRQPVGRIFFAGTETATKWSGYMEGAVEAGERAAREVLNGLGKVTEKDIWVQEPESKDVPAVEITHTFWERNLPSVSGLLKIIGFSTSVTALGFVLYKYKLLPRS
test: Inhibition of recombinant human MAO-A expressed in baculovirus infected BTI insect cells preincubated for 10 mins followed by addition of kynuramine as substrate
quantityKind: IC50 (µM)
Report as a plain number; the unit µM is understood.

Example entries begin here.
Item: COc1ccc(-c2coc3cc(O)ccc3c2=O)cc1 | IC50: 31.2

Item: COc1ccc2c(c1O)OC[C@H]1c3cc4c(cc3O[C@@H]21)OCO4 | IC50: 20.3

Item: CC(C)=CCc1c(O)cc(O)c2c1O[C@H](c1ccc(O)cc1)CC2=O | IC50: 38.8

Please turn your attention to the following entry.
Item: Oc1ccc2c(c1)OC[C@H]1c3cc4c(cc3O[C@@H]21)OCO4 | IC50: 85.8
